- target desc: T1, mouse tissue factor pathway inhibitor (TFPI) (mouse, UniProt O54819 29-289, limits assumed)
- T1 construct: Bought protein; also called mouse TFPI; mTFPI
- T1 sequence (looked up): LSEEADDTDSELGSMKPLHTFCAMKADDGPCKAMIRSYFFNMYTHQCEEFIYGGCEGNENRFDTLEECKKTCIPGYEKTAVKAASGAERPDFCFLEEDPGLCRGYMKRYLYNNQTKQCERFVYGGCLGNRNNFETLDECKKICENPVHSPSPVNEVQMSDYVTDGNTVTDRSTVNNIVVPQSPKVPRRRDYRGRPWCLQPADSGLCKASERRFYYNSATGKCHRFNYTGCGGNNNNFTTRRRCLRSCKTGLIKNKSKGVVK
- experiment notes: ELISA, Fab on coated TFPI
# pEC50 per entry
Remember the convention: pEC50 equals -log10 of concentration in molar.

Entry TP-3G3 Fab (Fab, V domains shown, Human Fab from HuCal Gold, expressed in E. coli TG1) VH: QVQLVESGGGLVQPGGSLRLSCAASGFTFSSYSMSWVRQAPGKGLEWVSSISSSSSNTYYGDSVKGRFTISRDNSKNTLYLQMNSLRAEDTAVYYCARMHYKGMDIWGQGTLVTVSS VL: DIQMTQSPSSLSASVGDRVTITCRASQNIHSHLNWYQQKPGKAPKLLIYDASSLQSGVPSRFSGSGSGTDFTLTISSLQPEDFAVYYCQQYYDYPLTFGQGTKVEIKR , pEC50 reported as 7.33

# pEC50 (binder: TP-2A8 Fab (Fab, V domains shown, Human Fab from HuCal Gold, expressed in E. coli TG1; also called Fab-2A8) VH: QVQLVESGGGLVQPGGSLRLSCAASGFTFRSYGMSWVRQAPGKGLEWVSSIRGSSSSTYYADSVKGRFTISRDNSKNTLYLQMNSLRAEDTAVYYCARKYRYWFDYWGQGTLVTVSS VL: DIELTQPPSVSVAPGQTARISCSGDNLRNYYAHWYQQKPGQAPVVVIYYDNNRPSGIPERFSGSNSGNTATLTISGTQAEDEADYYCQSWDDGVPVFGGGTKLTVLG ) is 10.22

Sure, the documented pEC50 for TP-2G9 Fab (Fab, V domains shown, Human Fab from HuCal Gold, expressed in E. coli TG1) VH: QVQLVESGGGLVQPGGSLRLSCAASGFTFNSYAMTWVRQAPGKGLEWVSAIKSDGSNTYYADSVKGRFTISRDNSKNTLYLQMNSLRAEDTAVYYCARNDSGWFDVWGQGTLVTVSS VL: DIALTQPASVSGSPGQSITISCTGTSSDLGGFNTVSWYQQHPGKAPKLMIYSVSSRPSGVSNRFSGSKSGNTASLTISGLQAEDEADYYCQSYDLNNLVFGGGTKLTVLG is 6.71
